- Measured target: human TAS1R2-WT/TAS1R3-F749S (Homo sapiens, UniProt Q7RTX0+Q8TE23, F749S)
- Construct: expressed in transfected cells; host or cells: HEK293T stably expressing Gα16gust44
- Method notes: Calcium mobilisation assay, TAS1R2-WT with TAS1R3 variant F749S
- Assay type: cell-based
- Conditions used: read-out: EC50
- Description: The coding sequences for TAS1R2 and TAS1R3 were commercially synthesised, and the human codon was optimised for expression in human cells. […] The HEK293T cells were kindly provided by Jay P. Slack (Givaudan Flavors Corporation; Cincinnati, OH, USA). […] The Ca^2+ changes were expressed as fractional changes in fluorescent light intensity: ΔF/F = (F − F0)/F0, where F was the fluorescent light intensity at each point, and F0 was the value of emitted fluorescent light prior to stimulus application. […]
Parameter pEC50: see the listing below.
Just so you know, pEC50 here is -log10 of the concentration in molar units; reply with that number alone.

Reported pEC50 for OC[C@H]1O[C@H](O[C@]2(CCl)O[C@H](CCl)[C@@H](O)[C@@H]2O)[C@H](O)[C@@H](O)[C@H]1Cl [Sucralose] : what is it?
3.60

Reported pEC50 for COc1ccc(CCC(=O)c2c(O)cc(O[C@@H]3O[C@H](CO)[C@@H](O)[C@H](O)[C@H]3O[C@@H]3O[C@@H](C)[C@H](O)[C@@H](O)[C@H]3O)cc2O)cc1O [NHDC, neohesperidin dihydrochalcone] : what is it?
3.82

Reported pEC50 for O=S(=O)(O)NC1CCCCC1 [Cyclamate, cyclamate] : what is it?
2.46

Reported pEC50 for C[C@H](CC[C@@H](O[C@@H]1O[C@H](CO[C@@H]2O[C@H](CO)[C@@H](O)[C@H](O)[C@H]2O)[C@@H](O)[C@H](O)[C@H]1O[C@@H]1O[C@H](CO)[C@@H](O)[C@H](O)[C@H]1O)C(C)(C)O)[C@H]1CC[C@@]2(C)[C@@H]3CC=C4[C@@H](CC[C@H](O[C@@H]5O[C@H](CO[C@@H]6O[C@H](CO)[C@@H](O)[C@H](O)[C@H]6O)[C@@H](O)[C@H](O)[C@H]5O)C4(C)C)[C@]3(C)[C@H](O)C[C@]12C [Mogroside V, mogroside V] : what is it?
4.18

* * *

Parameter R1 = Variant EC50/WT EC50: see the listing below.
- Measured target: human TAS1R2-WT/TAS1R3-R247H (Homo sapiens, UniProt Q7RTX0+Q8TE23, R247H)
- Construct: expressed in transfected cells; host or cells: HEK293T stably expressing Gα16gust44
- Sequence (Q8TE23 20-839): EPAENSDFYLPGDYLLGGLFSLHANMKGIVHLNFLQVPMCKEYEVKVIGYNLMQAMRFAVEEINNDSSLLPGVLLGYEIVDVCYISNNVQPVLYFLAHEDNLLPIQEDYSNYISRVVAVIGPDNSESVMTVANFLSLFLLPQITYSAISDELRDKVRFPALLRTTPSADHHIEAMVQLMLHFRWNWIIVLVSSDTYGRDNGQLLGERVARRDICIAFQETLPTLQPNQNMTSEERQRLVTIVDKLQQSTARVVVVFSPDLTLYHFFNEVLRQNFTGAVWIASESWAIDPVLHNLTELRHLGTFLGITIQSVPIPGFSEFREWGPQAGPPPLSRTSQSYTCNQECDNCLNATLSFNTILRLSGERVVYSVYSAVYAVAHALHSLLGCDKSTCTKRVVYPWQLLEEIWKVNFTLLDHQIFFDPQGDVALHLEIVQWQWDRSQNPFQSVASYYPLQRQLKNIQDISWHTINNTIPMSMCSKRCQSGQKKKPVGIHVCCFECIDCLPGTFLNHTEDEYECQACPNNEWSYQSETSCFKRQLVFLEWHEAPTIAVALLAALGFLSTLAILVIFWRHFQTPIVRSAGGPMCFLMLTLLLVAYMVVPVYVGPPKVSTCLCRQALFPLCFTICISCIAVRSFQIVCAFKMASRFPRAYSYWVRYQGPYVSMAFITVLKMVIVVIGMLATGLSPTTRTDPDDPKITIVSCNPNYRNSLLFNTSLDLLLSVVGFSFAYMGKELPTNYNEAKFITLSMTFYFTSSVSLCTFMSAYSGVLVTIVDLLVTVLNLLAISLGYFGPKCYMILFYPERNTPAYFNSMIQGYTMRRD
- Sequence (Q7RTX0 21-852 R247H): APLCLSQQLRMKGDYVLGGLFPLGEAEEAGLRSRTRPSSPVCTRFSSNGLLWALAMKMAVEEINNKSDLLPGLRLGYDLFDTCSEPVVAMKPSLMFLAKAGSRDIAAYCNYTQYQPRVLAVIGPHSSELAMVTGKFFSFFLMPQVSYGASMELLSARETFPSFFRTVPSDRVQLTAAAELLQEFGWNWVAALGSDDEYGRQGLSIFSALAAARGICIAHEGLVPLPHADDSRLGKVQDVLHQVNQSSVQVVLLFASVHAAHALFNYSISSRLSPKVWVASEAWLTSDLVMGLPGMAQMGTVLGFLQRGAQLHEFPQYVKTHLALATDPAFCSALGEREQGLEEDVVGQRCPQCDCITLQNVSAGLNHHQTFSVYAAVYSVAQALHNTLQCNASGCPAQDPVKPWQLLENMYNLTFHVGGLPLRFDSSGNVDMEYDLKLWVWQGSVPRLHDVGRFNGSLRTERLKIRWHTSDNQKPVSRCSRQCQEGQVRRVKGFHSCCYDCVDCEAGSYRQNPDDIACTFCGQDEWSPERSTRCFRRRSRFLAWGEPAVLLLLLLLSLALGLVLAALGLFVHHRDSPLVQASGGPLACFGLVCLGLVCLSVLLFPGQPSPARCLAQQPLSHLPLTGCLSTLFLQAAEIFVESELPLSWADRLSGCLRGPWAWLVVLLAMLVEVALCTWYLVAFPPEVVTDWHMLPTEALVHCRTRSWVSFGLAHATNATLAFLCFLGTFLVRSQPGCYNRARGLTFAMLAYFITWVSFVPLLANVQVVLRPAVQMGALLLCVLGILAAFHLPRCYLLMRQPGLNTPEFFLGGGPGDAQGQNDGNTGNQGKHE
- Method notes: Calcium mobilisation assay, TAS1R2-WT with TAS1R3 variant R247H
- Type: cell-based
Just the number, please.

Reported R1 = Variant EC50/WT EC50 for `COC(=O)[C@H](Cc1ccccc1)NC(=O)[C@H](CC(=O)O)NCCC(C)(C)C` : what is it?
0.9

Reported R1 = Variant EC50/WT EC50 for `CC1=CC(=O)NS(=O)(=O)O1` : what is it?
1.0

Reported R1 = Variant EC50/WT EC50 for `OC[C@H]1O[C@H](O[C@]2(CCl)O[C@H](CCl)[C@@H](O)[C@@H]2O)[C@H](O)[C@@H](O)[C@H]1Cl` : what is it?
1.1

Reported R1 = Variant EC50/WT EC50 for COc1ccc(CCC(=O)c2c(O)cc(O[C@@H]3O[C@H](CO)[C@@H](O)[C@H](O)[C@H]3O[C@@H]3O[C@@H](C)[C@H](O)[C@@H](O)[C@H]3O)cc2O)cc1O [NHDC, neohesperidin dihydrochalcone] : what is it?
1.3

Reported R1 = Variant EC50/WT EC50 for C=C1C[C@@]23CC[C@H]4[C@@](C)(CCC[C@@]4(C)C(=O)O[C@@H]4O[C@H](CO)[C@@H](O)[C@H](O[C@@H]5O[C@H](CO)[C@@H](O)[C@H](O)[C@H]5O)[C@H]4O[C@@H]4O[C@H](CO)[C@@H](O)[C@H](O)[C@H]4O)[C@@H]2CC[C@]1(O[C@@H]1O[C@H](CO)[C@@H](O)[C@H](O[C@@H]2O[C@H](CO)[C@@H](O)[C@H](O)[C@H]2O)[C@H]1O[C@@H]1O[C@H](CO)[C@@H](O)[C@H](O)[C@H]1O)C3 [Rebaudioside M, rebaudioside M] : what is it?
0.7

Reported R1 = Variant EC50/WT EC50 for C[C@H](CC[C@@H](O[C@@H]1O[C@H](CO[C@@H]2O[C@H](CO)[C@@H](O)[C@H](O)[C@H]2O)[C@@H](O)[C@H](O)[C@H]1O[C@@H]1O[C@H](CO)[C@@H](O)[C@H](O)[C@H]1O)C(C)(C)O)[C@H]1CC[C@@]2(C)[C@@H]3CC=C4[C@@H](CC[C@H](O[C@@H]5O[C@H](CO[C@@H]6O[C@H](CO)[C@@H](O)[C@H](O)[C@H]6O)[C@@H](O)[C@H](O)[C@H]5O)C4(C)C)[C@]3(C)[C@H](O)C[C@]12C [Mogroside V, mogroside V] : what is it?
0.9

Reported R1 = Variant EC50/WT EC50 for `C=C(C)[C@@H]1CC=C(/C=N/O)CC1` : what is it?
0.6
